Tested on: 935938-334-R-J1-PDC complex spheroid viability;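 further: spheroids exposed to drugs for seven days before viability read; 100% = DMSO vehicle control wells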
measurement protocol: Anticancer human tumor 935938-334-R-J1-PDC patient-derived small intestine adenocarcinoma cell line growth inhibition [POLQ]
study conditions: second compound 0.316 µM; first compound 0.316 µM; stronger effect = lower value
Listed next: entries and their corresponding viability, T/C.
Answer format: numeric, % implied, no suffix.

Take a look at these entries with their results.
[
  {
    "compound": "CNCc1ccc(-c2[nH]c3cc(F)cc4c3c2CCNC4=O)cc1 + Nc1ccc(C#CCN(C(=O)Cc2ncc(C(F)(F)F)cc2C(F)(F)F)c2ccc(F)cc2)nn1",
    "target or test system": "935938-334-R-J1-PDC complex spheroid viability",
    "viability, T/C [%]": 110
  },
  {
    "compound": "CC(C)n1c(=O)n(C)c2cnc3cc(F)c(-c4ccc(OCCCN5CCCCC5)nc4)cc3c21 + Nc1ccc(C#CCN(C(=O)Cc2ncc(C(F)(F)F)cc2C(F)(F)F)c2ccc(F)cc2)nn1",
    "target or test system": "935938-334-R-J1-PDC complex spheroid viability",
    "viability, T/C [%]": 84.9
  }
]

Next compound, please.
Input COc1cc2cc(C(=O)CCC(=O)O)sc2cc1OC + COC1C(OC(N)=O)C(O)C(Oc2ccc3c(O)c(NC(=O)c4ccc(O)c(CC=C(C)C)c4)c(=O)oc3c2C)OC1(C)C . Output viability, T/C: 109
